Values from paper PMC2756588

testTarget: T1, Boi1, P38041
T1 sequence (P38041 1-86, looked up): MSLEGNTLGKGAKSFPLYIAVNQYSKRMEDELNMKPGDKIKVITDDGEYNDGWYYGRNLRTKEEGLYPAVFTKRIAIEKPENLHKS
assayOverview: SPOT array
recordedConditions: median of control spots 1162
Lab note: cut-off is 3. Strictly less in SPOT intensity is MET. Exactly 3 or more is NOT MET.

| binder | category |
| --- | --- |
| KRKRFNLLLPKPYLT | NOT MET |
| NENKKLPPAPTVFGL | MET |
| APPPPPRRATPEKKP | MET |
| PSTMDFPKLPSFQNS | MET |
| FSRRQSMDIPSKNRN | MET |
| LKHGWKPLRPIKLIS | MET |
| IRMPSNPALPKKLLN | MET |
| AAAPKHAPPPVPNET | MET |
| PPPPPPPPPPPLPQS | MET |
| DRIRMFIRFPKFLLE | NOT MET |
| GRSRLFPHSPLGRSS | NOT MET |
| VNIPSPSSSPPPIPK | MET |
| SNRRPVPRRPSQPLN | MET |
| RTIRKLPLMSLSEYF | MET |
| NNFYRPLLRSVLVLL | NOT MET |
| NFLRLLIGLPSQNEL | NOT MET |
| LPMNIQPDLPPRKIM | MET |
| NGRRRPKFRVQLSGN | NOT MET |
| QRKSLRRPTLSKPAV | MET |
| APERAVPILPPRNNV | MET |
| RLSFFFPLDPAYIRN | NOT MET |
| NFKRLLPRDPSEKSS | NOT MET |
| DFTLPPPPPPPGLDE | MET |
| HGKRRAPLLLAKLDV | MET |
| AERNYAPRLPRRETS | MET |
| IVNKPLPPLPVAGSS | MET |
| IHTRRPSSTSQYLIR | MET |
| NRLRKRLNLPSEISI | NOT MET |
